PROTOCOL_DESCRIPTION: Human HepG2 cell viability assay in 384 well format
Assay type: toxicity, cell-based
Design: dose 125 nL, time 70.5 hour; concentration not given beside the values
CONDITION_DESCRIPTION: HepG2 cells, read-out: Inhibition

[
  {
    "COMPOUND": "O=C(NCc1ccco1)[C@H]1C[C@H]2OCC[C@H]2N(C(=O)c2ccco2)C1",
    "cytotoxicity at 70.5 h, %": -8.55
  },
  {
    "COMPOUND": "Cc1nc(C)n(CC2CN(c3ccc(C#N)cn3)CCO2)n1 (stereo not given)",
    "cytotoxicity at 70.5 h, %": -4.17
  },
  {
    "COMPOUND": "Fc1cnc(N2C[C@@H]3C[C@@H](c4nc(C5CC5)cs4)O[C@@H]3C2)nc1",
    "cytotoxicity at 70.5 h, %": -1.67
  },
  {
    "COMPOUND": "CC1(c2ncc(CN3CCOCC3)cn2)CCCCO1 (stereo not given)",
    "cytotoxicity at 70.5 h, %": -1.05
  },
  {
    "COMPOUND": "Cc1nnc(N2C[C@H](OCc3ccncc3)[C@H]3OCCC[C@H]32)s1",
    "cytotoxicity at 70.5 h, %": -4.47
  },
  {
    "COMPOUND": "O=S1(=O)C[C@@H]2[C@H](C1)N(Cc1nc3ccccc3[nH]1)CCN2CC1CC1",
    "cytotoxicity at 70.5 h, %": -5.06
  },
  {
    "COMPOUND": "O=C(NCCNc1cccnc1)C(c1cccnc1)N1CCCC1 (stereo not given)",
    "cytotoxicity at 70.5 h, %": -9.35
  },
  {
    "COMPOUND": "Cc1ccc(NC2CCN(C(=O)CN(C)C3CC3)CC2)nn1",
    "cytotoxicity at 70.5 h, %": -1.46
  },
  {
    "COMPOUND": "O=C(NCc1ccc(Br)c(F)c1)Nc1cn[nH]c1",
    "cytotoxicity at 70.5 h, %": -22.7
  },
  {
    "COMPOUND": "COc1cc(F)c(C(=O)N2C[C@@H](CN(C)CCO)[C@@H](CO)C2)c(F)c1",
    "cytotoxicity at 70.5 h, %": -2.86
  }
]

* * *

PROTOCOL_DESCRIPTION: Human HepG2 cell viability assay in 384 well format
Format: toxicity, cell-based
Parameters: dose 125 nL, time 70.5 hour; concentration not given beside the values
CONDITION_DESCRIPTION: HepG2 cells, read-out: Inhibition
Collected cytotoxicity at 70.5 h values appear next to each entry.
PROPERTY_LABEL: cytotoxicity at 70.5 h (%)

[
  {
    "COMPOUND": "Cc1cccn2cc(CN3CCC(N4CCN(C)C4=O)CC3)nc12",
    "EXPERIMENTAL_RESULT": -6.74
  },
  {
    "COMPOUND": "COc1cccc(CNC[C@H]2COCc3nc4cccnc4n32)n1",
    "EXPERIMENTAL_RESULT": -8.19
  },
  {
    "COMPOUND": "Cc1cccc(C2CCCN2S(=O)(=O)N(C)C)n1 (centres undefined)",
    "EXPERIMENTAL_RESULT": -2.59
  },
  {
    "COMPOUND": "CC(C)(CC(=O)Nc1cccc(Oc2ccccn2)c1)C(=O)O",
    "EXPERIMENTAL_RESULT": -5.32
  },
  {
    "COMPOUND": "CN(C)S(=O)(=O)NCc1nn(CCN2CCCC2)c(=O)c2ccccc12",
    "EXPERIMENTAL_RESULT": -12.7
  },
  {
    "COMPOUND": "CC1CCN(c2ncc3c(n2)CN(Cc2cccc(F)c2)C3=O)CC1",
    "EXPERIMENTAL_RESULT": -0.149
  },
  {
    "COMPOUND": "CN(C(=O)CN1CCc2nn(C)c(=O)cc2C1)c1nccs1",
    "EXPERIMENTAL_RESULT": -4.13
  },
  {
    "COMPOUND": "O=C(c1ccccn1)N1C[C@@H]2CC[C@H](C1)N(C(=O)c1ccsc1)C2",
    "EXPERIMENTAL_RESULT": 26.5
  },
  {
    "COMPOUND": "CCOc1ccccc1C(N)CC(C)C (centres undefined)",
    "EXPERIMENTAL_RESULT": -0.686
  },
  {
    "COMPOUND": "Cc1cccc(CNC[C@H]2Cn3ccnc3CO2)n1",
    "EXPERIMENTAL_RESULT": -1.57
  },
  {
    "COMPOUND": "OC1CCCN(CCNc2ncc(Cl)cc2F)C1 (centres undefined)",
    "EXPERIMENTAL_RESULT": 16.2
  },
  {
    "COMPOUND": "O=C(Cc1ccccn1)N1CCc2c(O)nc(-c3cnccn3)nc2C1",
    "EXPERIMENTAL_RESULT": -6.46
  },
  {
    "COMPOUND": "CC(C)Cn1ncc(C(=O)O)c1C1CC1",
    "EXPERIMENTAL_RESULT": -5.02
  },
  {
    "COMPOUND": "CN(C)S(=O)(=O)N1C[C@H]2C[C@H](C(=O)Nc3cccnc3)[C@@H](C1)O2",
    "EXPERIMENTAL_RESULT": -8.64
  },
  {
    "COMPOUND": "CCN1CCCCC1C(=O)Nc1cccc(-c2nnc[nH]2)c1 (centres undefined)",
    "EXPERIMENTAL_RESULT": -0.846
  },
  {
    "COMPOUND": "Cc1cccc(CNC2CC(=O)N(Cc3cccc(F)c3)C2)c1 (centres undefined)",
    "EXPERIMENTAL_RESULT": -4.77
  },
  {
    "COMPOUND": "Cc1nc(CN2CCN(S(=O)(=O)N3CCOCC3)CC2)oc1C",
    "EXPERIMENTAL_RESULT": -3.19
  },
  {
    "COMPOUND": "CNc1cc(C)nc(NC2CCCN(C3Cc4ccccc4C3)C2)n1 (centres undefined)",
    "EXPERIMENTAL_RESULT": 28.6
  },
  {
    "COMPOUND": "Cc1ccc(C(=O)NCc2ccnc(N3CCN(C)CC3)c2)cn1",
    "EXPERIMENTAL_RESULT": -10
  },
  {
    "COMPOUND": "c1ccc(-c2cnc(CN3CCCC3Cn3cncn3)o2)cc1 (centres undefined)",
    "EXPERIMENTAL_RESULT": -14.6
  },
  {
    "COMPOUND": "CCC(CC)NC(=O)c1cccnc1-n1cccn1",
    "EXPERIMENTAL_RESULT": 18
  },
  {
    "COMPOUND": "CC(=O)Nc1ccc(C(=O)N2CCSCC2c2ccc(C)o2)cc1 (centres undefined)",
    "EXPERIMENTAL_RESULT": -4.02
  },
  {
    "COMPOUND": "COc1cc(C2CC(=O)Nc3c2nc2n3CCCC2)ccc1O (centres undefined)",
    "EXPERIMENTAL_RESULT": -7.4
  },
  {
    "COMPOUND": "O=C(NCc1cn2c(n1)CN(Cc1nccs1)CC2)C1CCC1",
    "EXPERIMENTAL_RESULT": -6.31
  }
]

* * *

PROTOCOL_DESCRIPTION: Human HepG2 cell viability assay in 384 well format
Type: toxicity, cell-based
Set-up: dose 125 nL, time 70.5 hour; concentration not given beside the values
CONDITION_DESCRIPTION: HepG2 cells, read-out: Inhibition
cytotoxicity at 70.5 h overview

[
  {
    "MOLECULE": "c1cncc(CO[C@H]2CN(Cc3ccco3)[C@@H]3COC[C@H]23)c1",
    "cytotoxicity at 70.5 h": "-3.78%"
  },
  {
    "MOLECULE": "CCOCC(=O)N1Cc2cnc(-c3ccccc3)nc2C1",
    "cytotoxicity at 70.5 h": "-13%"
  },
  {
    "MOLECULE": "COc1ncc(NC(=O)c2ccco2)c(OC)n1",
    "cytotoxicity at 70.5 h": "7.73%"
  },
  {
    "MOLECULE": "CC(C)(O)CCc1cccc(C(=O)NCc2cnn3cccnc23)c1",
    "cytotoxicity at 70.5 h": "-4.68%"
  },
  {
    "MOLECULE": "Cc1cnn(CC2CCCN2C(=O)c2ccc3c(c2)nnn3C)c1 (configuration not stated)",
    "cytotoxicity at 70.5 h": "-6.19%"
  },
  {
    "MOLECULE": "CC(C(=O)Nc1ccc(N2CCCC2)nc1)n1cncn1 (configuration not stated)",
    "cytotoxicity at 70.5 h": "-12.1%"
  },
  {
    "MOLECULE": "NC(=O)c1cccc(CC2CCN(C(=O)Cn3cnnn3)C2)c1 (configuration not stated)",
    "cytotoxicity at 70.5 h": "-10.5%"
  },
  {
    "MOLECULE": "CC(C)CCn1ccc(NC(=O)N2CCCC2CN2CCOCC2)n1 (configuration not stated)",
    "cytotoxicity at 70.5 h": "-7.64%"
  },
  {
    "MOLECULE": "CCC1CN(CC(=O)NCCN2CCCCC2)c2ccccc2S1 (configuration not stated)",
    "cytotoxicity at 70.5 h": "-3.08%"
  },
  {
    "MOLECULE": "Cn1c(CC2CCS(=O)(=O)C2)nnc1SCCOc1ccccc1F (configuration not stated)",
    "cytotoxicity at 70.5 h": "-8.16%"
  },
  {
    "MOLECULE": "Cc1ccccc1C(C)NC(=O)CN1CCN(Cc2ccc(Cl)s2)CC1 (configuration not stated)",
    "cytotoxicity at 70.5 h": "17%"
  },
  {
    "MOLECULE": "CC(C)NC(=O)Nc1ccc(CNCc2cccc(OC(F)F)c2)cc1",
    "cytotoxicity at 70.5 h": "29.1%"
  }
]
